runDescription: in vivo
conditionParameters: male, BALB/c, mouse, in vivo, iv, 2 mg/kg, AUC0-t

compound: COc1cccc2c1C(=O)c1c(O)c3c(c(O)c1C2=O)C[C@@](O)(C(=O)CO)C[C@@H]3O[C@H]1C[C@H](N)[C@H](O)[C@H](C)O1 [Doxorubicin, reference compound]
AUC(0-t) [ng·h/mL]: 207

====

measuredOn: CYP3A4 (Homo sapiens)
Construct: from tissue; host or cells: human liver microsomes
Sequence (P08684 whole entry): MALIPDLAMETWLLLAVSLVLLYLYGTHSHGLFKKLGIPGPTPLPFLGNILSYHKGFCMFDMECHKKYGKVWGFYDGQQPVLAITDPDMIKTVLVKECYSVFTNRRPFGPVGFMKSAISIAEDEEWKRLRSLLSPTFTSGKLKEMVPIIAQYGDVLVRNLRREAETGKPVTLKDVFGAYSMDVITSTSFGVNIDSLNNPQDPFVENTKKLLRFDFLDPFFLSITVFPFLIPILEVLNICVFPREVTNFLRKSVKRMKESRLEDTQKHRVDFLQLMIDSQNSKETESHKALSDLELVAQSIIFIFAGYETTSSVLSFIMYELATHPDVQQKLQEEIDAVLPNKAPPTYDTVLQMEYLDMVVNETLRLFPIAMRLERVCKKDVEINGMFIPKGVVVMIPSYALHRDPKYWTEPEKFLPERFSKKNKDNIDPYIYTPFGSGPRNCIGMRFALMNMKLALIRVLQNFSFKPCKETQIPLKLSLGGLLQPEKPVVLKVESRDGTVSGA
runDescription: HLM-LC-MS CYP450 inhibition assay, CYP3A4
Format: in vitro ADME
conditionParameters: substrate testosterone 80 μM, 6ß-hydroxylation, read-out: Compound IC50

compound: COc1ccc(-c2cc(C(O)C3CCCCN3)c3ccccc3n2)cc1 (stereo not shown) [NSC23925b]
IC50: > 10 µM

====

runDescription: in vivo
conditionParameters: male, Sprague-Dawley, rat, iv, 5 mg/kg, AUC0-t

compound: CC(=O)O[C@H]1C(=O)[C@@]2(C)[C@H]([C@H](OC(=O)c3ccccc3)[C@]3(O)C[C@H](OC(=O)[C@H](O)[C@@H](NC(=O)c4ccccc4)c4ccccc4)C(C)=C1C3(C)C)[C@]1(OC(C)=O)CO[C@@H]1C[C@@H]2O [Paclitaxel, reference compound]
AUC(0-t): 4200 ng·h/mL

====

runDescription: in vivo
conditionParameters: male, BALB/c, mouse, in vivo, ip, 5 mg/kg, AUC0-t

compound: COc1ccc(-c2cc(C(O)C3CCCCN3)c3ccccc3n2)cc1 (stereo not shown) [NSC23925b]
AUC(0-t), ng·h/mL: 3360

====

runDescription: in vivo
conditionParameters: male, Sprague-Dawley, rat, ip, 5 mg/kg, Kel
quantityKind: k el (s⁻¹)

compound: COc1ccc(-c2cc(C(O)C3CCCCN3)c3ccccc3n2)cc1 (stereo not shown) [NSC23925b]
observedValue: 2.29e-05

====

runDescription: Plasma pharmacokinetics after single I.P./I.V. dose in male Sprague-Dawley rats (LC-MS/MS)
conditionParameters: male, Sprague-Dawley, rat, plasma, iv, 1 mg/kg, Kel, SD rats; doxorubicin I.V. 1.00 mg/kg combined with NSC23925b 2.50 mg/kg

compound: COc1cccc2c1C(=O)c1c(O)c3c(c(O)c1C2=O)C[C@@](O)(C(=O)CO)C[C@@H]3O[C@H]1C[C@H](N)[C@H](O)[C@H](C)O1 [Doxorubicin, reference compound]
unitAbbreviation: s⁻¹
k el: 1.35e-05

====

runDescription: Determination of maximum tolerated dose (MTD) in mice
Assay type: in vivo
conditionParameters: both sexes, BALB/c, mouse, in vivo, iv; female and male mice, I.V., health conditions not significantly influenced; read-out: tolerated dosage (MTD study)

molecule: COc1ccc(-c2cc(C(O)C3CCCCN3)c3ccccc3n2)cc1 (stereo not shown) [NSC23925b]
MTD: 24.7 mg/kg

====

runDescription: Determination of maximum tolerated dose (MTD) in rats
Type: in vivo
conditionParameters: Sprague-Dawley, in vivo, iv; female rats, I.V., one female rat moribund; read-out: tolerated dosage (MTD study)
quantityKind: MTD (mg/kg)

compound: COc1ccc(-c2cc(C(O)C3CCCCN3)c3ccccc3n2)cc1 (stereo not shown) [NSC23925b]
quantityKind: MTD
observedValue: 47.2

====

runDescription: in vivo
conditionParameters: male, Sprague-Dawley, rat, iv, 2.5 mg/kg, VdSS

compound: COc1ccc(-c2cc(C(O)C3CCCCN3)c3ccccc3n2)cc1 (stereo not shown) [NSC23925b]
Vd: 32.4 L/kg

====

runDescription: in vivo
conditionParameters: male, Sprague-Dawley, rat, ip, 5 mg/kg, t1/2
quantityKind: half-life (h)

compound: COc1ccc(-c2cc(C(O)C3CCCCN3)c3ccccc3n2)cc1 (stereo not shown) [NSC23925b]
quantityKind: half-life
observedValue: 9.24

====

runDescription: in vivo
conditionParameters: male, Sprague-Dawley, rat, iv, 1 mg/kg, VdSS
quantityKind: Vd

compound: COc1cccc2c1C(=O)c1c(O)c3c(c(O)c1C2=O)C[C@@](O)(C(=O)CO)C[C@@H]3O[C@H]1C[C@H](N)[C@H](O)[C@H](C)O1 [Doxorubicin, reference compound]
quantityKind: Vd
observedValue: 97.1 L/kg

====

runDescription: in vivo
conditionParameters: male, Sprague-Dawley, rat, iv, 5 mg/kg, CL

compound: CC(=O)O[C@H]1C(=O)[C@@]2(C)[C@H]([C@H](OC(=O)c3ccccc3)[C@]3(O)C[C@H](OC(=O)[C@H](O)[C@@H](NC(=O)c4ccccc4)c4ccccc4)C(C)=C1C3(C)C)[C@]1(OC(C)=O)CO[C@@H]1C[C@@H]2O [Paclitaxel, reference compound]
clearance: 18.2 mL/min/kg

====

runDescription: Determination of maximum tolerated dose (MTD) in rats
Format: in vivo
conditionParameters: Sprague-Dawley, rat, in vivo, ip; male rats, I.P., all in good status; read-out: tolerated dosage (MTD study)
Method: The MTD determination assay was composed of sighting study and main study. […] Time of appearance, degree, and lasting/recovery time of signs were recorded in details. […] Animals were fasted overnight prior to dosing. Following the period of fasting, the animals were weighed and the dose was calculated according to the body weight. […] Individual weights of animals were determined shortly before the test substance was administered and twice weekly thereafter. Weight changes were calculated and recorded. […]

molecule: COc1ccc(-c2cc(C(O)C3CCCCN3)c3ccccc3n2)cc1 (stereo not shown) [NSC23925b]
MTD (mg/kg): 33.1

====

runDescription: Determination of maximum tolerated dose (MTD) in rats
Type: in vivo
conditionParameters: Sprague-Dawley, rat, in vivo, iv; male rats, I.V.; read-out: tolerated dosage (MTD study)

molecule: COc1ccc(-c2cc(C(O)C3CCCCN3)c3ccccc3n2)cc1 (stereo not shown) [NSC23925b]
MTD: 38.8 mg/kg

====

runDescription: Plasma pharmacokinetics after single I.P./I.V. dose in male Sprague-Dawley rats (LC-MS/MS)
conditionParameters: male, Sprague-Dawley, rat, plasma, iv, 1 mg/kg, CL, SD rats; doxorubicin I.V. 1.00 mg/kg combined with NSC23925b 2.50 mg/kg
quantityKind: clearance (mL/min/kg)

compound: COc1cccc2c1C(=O)c1c(O)c3c(c(O)c1C2=O)C[C@@](O)(C(=O)CO)C[C@@H]3O[C@H]1C[C@H](N)[C@H](O)[C@H](C)O1 [Doxorubicin, reference compound]
quantityKind: clearance
observedValue: 120

====

runDescription: in vivo
conditionParameters: male, Sprague-Dawley, rat, iv, 2.5 mg/kg, CL

molecule: COc1ccc(-c2cc(C(O)C3CCCCN3)c3ccccc3n2)cc1 (stereo not shown) [NSC23925b]
clearance: 46.3 mL/min/kg

====

Target chain: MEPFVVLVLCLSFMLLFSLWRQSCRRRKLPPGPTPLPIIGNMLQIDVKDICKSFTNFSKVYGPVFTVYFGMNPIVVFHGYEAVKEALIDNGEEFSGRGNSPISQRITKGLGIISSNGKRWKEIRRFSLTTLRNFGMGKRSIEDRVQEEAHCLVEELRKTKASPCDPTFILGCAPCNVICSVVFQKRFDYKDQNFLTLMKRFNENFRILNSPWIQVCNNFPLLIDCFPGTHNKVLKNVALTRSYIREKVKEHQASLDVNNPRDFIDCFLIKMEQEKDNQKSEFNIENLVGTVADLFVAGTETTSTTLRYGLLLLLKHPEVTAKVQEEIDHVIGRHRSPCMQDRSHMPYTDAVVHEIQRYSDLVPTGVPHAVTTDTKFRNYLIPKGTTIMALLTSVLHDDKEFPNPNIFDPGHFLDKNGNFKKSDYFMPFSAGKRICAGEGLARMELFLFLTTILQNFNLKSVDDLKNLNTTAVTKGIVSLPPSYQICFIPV
quantityKind: IC50

compound: COc1ccc(-c2cc(C(O)C3CCCCN3)c3ccccc3n2)cc1 (stereo not shown) [NSC23925b]
quantityKind: IC50
observedValue: > 10 µM

====

measuredOn: UniProt P20813
Sequence (P20813 1-491): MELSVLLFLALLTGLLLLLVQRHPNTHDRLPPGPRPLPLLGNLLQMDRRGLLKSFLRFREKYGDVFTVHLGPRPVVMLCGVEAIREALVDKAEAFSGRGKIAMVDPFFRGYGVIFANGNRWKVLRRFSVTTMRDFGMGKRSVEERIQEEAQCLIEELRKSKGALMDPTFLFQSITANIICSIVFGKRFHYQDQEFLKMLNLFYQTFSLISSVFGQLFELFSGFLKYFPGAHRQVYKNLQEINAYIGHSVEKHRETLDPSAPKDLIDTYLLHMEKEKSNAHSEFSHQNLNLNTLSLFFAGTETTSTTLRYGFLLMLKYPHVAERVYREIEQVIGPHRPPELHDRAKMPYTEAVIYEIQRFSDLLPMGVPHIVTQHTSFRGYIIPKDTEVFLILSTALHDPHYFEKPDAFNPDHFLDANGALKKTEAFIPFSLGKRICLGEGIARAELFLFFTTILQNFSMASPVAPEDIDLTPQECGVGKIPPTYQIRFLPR
quantityKind: IC50

compound: COc1ccc(-c2cc(C(O)C3CCCCN3)c3ccccc3n2)cc1 (centres unmarked) [NSC23925b]
measuredOn: UniProt P20813
quantityKind: IC50
observedValue: 8.59 µM
//
compound: COC(=O)[C@H](c1ccccc1Cl)N1CCc2sccc2C1 [Clopidogrel, reference compound]
measuredOn: UniProt P20813
quantityKind: IC50
observedValue: 0.914 µM

Source: paper PMC4860631
